Target: HNF4alpha8 (COS-7 nuclear extract) (Homo sapiens, UniProt P41235-5 1-452)
Sequence: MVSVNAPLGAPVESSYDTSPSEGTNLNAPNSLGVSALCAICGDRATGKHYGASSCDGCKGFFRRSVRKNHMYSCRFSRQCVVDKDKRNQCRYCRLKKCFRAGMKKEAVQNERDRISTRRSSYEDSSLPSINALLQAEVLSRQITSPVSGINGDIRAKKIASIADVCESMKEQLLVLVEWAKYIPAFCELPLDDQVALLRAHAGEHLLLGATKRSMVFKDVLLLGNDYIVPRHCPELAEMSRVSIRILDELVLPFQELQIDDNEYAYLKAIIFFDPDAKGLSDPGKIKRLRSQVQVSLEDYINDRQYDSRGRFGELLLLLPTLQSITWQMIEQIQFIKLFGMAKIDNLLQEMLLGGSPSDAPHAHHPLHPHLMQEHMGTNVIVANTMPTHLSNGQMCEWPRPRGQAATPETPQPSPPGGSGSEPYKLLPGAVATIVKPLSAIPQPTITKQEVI
Experiment: protein-binding microarray; COS-7 nuclear extract on double-stranded Agilent 4x180k PBM; binding buffer, salt, pH and temperature not given in the material; high values mean tight binding
Conditions: chain copies: 2; label: 3' end of strand 1 on the slide; dsDNA, one strand shown
Over roughly 18,000 sequences, “log2 normalized intensity” has its median near 0.36; the highest 2% begin near 7.3. What follows is part of a selection rich in the highest values, with near analogues and random picks from the rest.
Measured binding signal, listed per entry for reference.
ENDPOINT_NAME: binding signal

{"ORDERED_RESIDUES": "TCTTTACACCATTGCAAGGATTCCAAATTTGCCTAGGGAGATTAGAGTATCGGTCGA", "RESULT": "0.0367 log2 normalized intensity"}
{"ORDERED_RESIDUES": "TCACAACCTCCCTTTGAAGGAGCCACTGGTGCCTAGGGAGATTAGAGTATCGGTCGA", "RESULT": "-0.869 log2 normalized intensity"}
{"ORDERED_RESIDUES": "GTGCTCCTCCCCATCTCAGCCTCTCAGGTCGCCTAGGGAGATTAGAGTATCGGTCGA", "RESULT": "1.84 log2 normalized intensity"}
{"ORDERED_RESIDUES": "GAGCACTCATTCCTATTCGGTGCTGACCTTGCCTAGGGAGATTAGAGTATCGGTCGA", "RESULT": "3.97 log2 normalized intensity"}
{"ORDERED_RESIDUES": "ATCCTGCCTCCATTAATTAACCTTTGAGCTGCCTAGGGAGATTAGAGTATCGGTCGA", "RESULT": "6.76 log2 normalized intensity"}
{"ORDERED_RESIDUES": "AAAAGTGACCTTTGCTCCAGTTCCCAATAAGCCTAGGGAGATTAGAGTATCGGTCGA", "RESULT": "7.02 log2 normalized intensity"}
{"ORDERED_RESIDUES": "GAATTCCATCCCAGGTCCACAGTGCACATTGCCTAGGGAGATTAGAGTATCGGTCGA", "RESULT": "2.26 log2 normalized intensity"}
{"ORDERED_RESIDUES": "TAGACATAGGTTATAAACTTGTTTGGGATTGCCTAGGGAGATTAGAGTATCGGTCGA", "RESULT": "0.308 log2 normalized intensity"}
{"ORDERED_RESIDUES": "CTAAGCAGCGAAGCTGTGTCAGGCATTGTAGCCTAGGGAGATTAGAGTATCGGTCGA", "RESULT": "-0.633 log2 normalized intensity"}
{"ORDERED_RESIDUES": "CAAAGCATAGCAAGAGTGACCTTTGCTCCAGCCTAGGGAGATTAGAGTATCGGTCGA", "RESULT": "9 log2 normalized intensity"}
{"ORDERED_RESIDUES": "AGATTCTGCAAACCTATTAATATATTCATAGCCTAGGGAGATTAGAGTATCGGTCGA", "RESULT": "-0.929 log2 normalized intensity"}
{"ORDERED_RESIDUES": "CCACTGCGACCTTTGCCCTCCCTAAATCCAGCCTAGGGAGATTAGAGTATCGGTCGA", "RESULT": "7.84 log2 normalized intensity"}
{"ORDERED_RESIDUES": "ATTAGAGAACATGTACTTTGTACTGCTTATGCCTAGGGAGATTAGAGTATCGGTCGA", "RESULT": "4.99 log2 normalized intensity"}
{"ORDERED_RESIDUES": "CAATCCAGAAGGCGCTGAACTTTGCCTTGTGCCTAGGGAGATTAGAGTATCGGTCGA", "RESULT": "5.04 log2 normalized intensity"}
{"ORDERED_RESIDUES": "TTTTGAATGACAGTGTCAGGACCTTGCTCCGCCTAGGGAGATTAGAGTATCGGTCGA", "RESULT": "2.73 log2 normalized intensity"}
{"ORDERED_RESIDUES": "ACACACAATAAGGACTTTGGACCGTCTTGTGCCTAGGGAGATTAGAGTATCGGTCGA", "RESULT": "8.19 log2 normalized intensity"}
{"ORDERED_RESIDUES": "CTCATTCCTATTCGGTGCTGACCTTTGTTCGCCTAGGGAGATTAGAGTATCGGTCGA", "RESULT": "8.62 log2 normalized intensity"}
{"ORDERED_RESIDUES": "TTGCCATGACCTTTGAAGCCCAGAACACTCGCCTAGGGAGATTAGAGTATCGGTCGA", "RESULT": "4.51 log2 normalized intensity"}
{"ORDERED_RESIDUES": "AGGACTTTGGACCGTCTTGTGGATCCTTGGGCCTAGGGAGATTAGAGTATCGGTCGA", "RESULT": "5.27 log2 normalized intensity"}
{"ORDERED_RESIDUES": "ATCTGTATCAGCCTGTGACAAAGTCCATCTGCCTAGGGAGATTAGAGTATCGGTCGA", "RESULT": "5.65 log2 normalized intensity"}
{"ORDERED_RESIDUES": "TCACACAAATGGATCTTTCTTCAAAAAGAGGCCTAGGGAGATTAGAGTATCGGTCGA", "RESULT": "-0.0678 log2 normalized intensity"}
{"ORDERED_RESIDUES": "CATAGCAAGAGTGACCTTTGCTCCAGTTCCGCCTAGGGAGATTAGAGTATCGGTCGA", "RESULT": "8.19 log2 normalized intensity"}
{"ORDERED_RESIDUES": "GCGTAGCCCAAAGGTCAGTCTGCAGCTAATGCCTAGGGAGATTAGAGTATCGGTCGA", "RESULT": "3.36 log2 normalized intensity"}
{"ORDERED_RESIDUES": "TATTGAGAAGAAACCTTTGCCCAACAGGATGCCTAGGGAGATTAGAGTATCGGTCGA", "RESULT": "2.13 log2 normalized intensity"}
{"ORDERED_RESIDUES": "CTTCTCCGCGGCGGGCCCTCGACCTTTGCCGCCTAGGGAGATTAGAGTATCGGTCGA", "RESULT": "5.8 log2 normalized intensity"}
{"ORDERED_RESIDUES": "AGAAGCCACTGCGACCTTTGCCCTCCCTAAGCCTAGGGAGATTAGAGTATCGGTCGA", "RESULT": "8.33 log2 normalized intensity"}
{"ORDERED_RESIDUES": "TCTTAACATCAGAAGTTGGACTTTGTACATGCCTAGGGAGATTAGAGTATCGGTCGA", "RESULT": "9.76 log2 normalized intensity"}
{"ORDERED_RESIDUES": "TCTTGTCCTTCCCCTTTTGTGTTTGTCCCTGCCTAGGGAGATTAGAGTATCGGTCGA", "RESULT": "3.03 log2 normalized intensity"}
{"ORDERED_RESIDUES": "CCGCGGCGGGCCCTCGACCTTTGCCCTCCAGCCTAGGGAGATTAGAGTATCGGTCGA", "RESULT": "9.76 log2 normalized intensity"}
{"ORDERED_RESIDUES": "CAGAGAGAAGCCACTGCGACCTTTGCCCTCGCCTAGGGAGATTAGAGTATCGGTCGA", "RESULT": "10 log2 normalized intensity"}
{"ORDERED_RESIDUES": "AGGTGAATGTACAAAGGTCAACGGCACAAGGCCTAGGGAGATTAGAGTATCGGTCGA", "RESULT": "5.02 log2 normalized intensity"}
{"ORDERED_RESIDUES": "CCAATTATTGCGAGTTTAGGAGGGTTCCTGGCCTAGGGAGATTAGAGTATCGGTCGA", "RESULT": "-0.0269 log2 normalized intensity"}
{"ORDERED_RESIDUES": "GTTAAGTGAGTGGACTTTGGTCCTGGTCAGGCCTAGGGAGATTAGAGTATCGGTCGA", "RESULT": "7.53 log2 normalized intensity"}
{"ORDERED_RESIDUES": "CCCCTTCTTAACATCAGAAGTTGGACTTTGGCCTAGGGAGATTAGAGTATCGGTCGA", "RESULT": "8.31 log2 normalized intensity"}
{"ORDERED_RESIDUES": "TATACATTTTCCCACTTGTATGTCCAAGGGGCCTAGGGAGATTAGAGTATCGGTCGA", "RESULT": "1.25 log2 normalized intensity"}
{"ORDERED_RESIDUES": "TGTGCTGCCCCCGATAGCACTATTAGTCTTGCCTAGGGAGATTAGAGTATCGGTCGA", "RESULT": "3.06 log2 normalized intensity"}
{"ORDERED_RESIDUES": "ATATCTGCCTCAGTAGTAGTGAAAAATGAAGCCTAGGGAGATTAGAGTATCGGTCGA", "RESULT": "0.637 log2 normalized intensity"}
